# Tested on: PPARg:RXRa IVT, anti-PPARg (NR concentration 270 nM, RXRa partner concentration 90 nM)
# method-description: PBM binding z-score (relative to random genomic background probes); higher = stronger binding; sequences stand for … in GC…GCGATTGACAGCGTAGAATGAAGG
PBM binding z-score: recorded values
// no unit string in output, number only

Example cases with answers are listed next.
For `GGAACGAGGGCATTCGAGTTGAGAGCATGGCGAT` , write its PBM binding z-score. 2.42

For `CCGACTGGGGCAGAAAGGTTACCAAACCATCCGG` , write its PBM binding z-score. 1.71

For `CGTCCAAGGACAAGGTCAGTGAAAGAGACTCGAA` , write its PBM binding z-score. 0.71

For `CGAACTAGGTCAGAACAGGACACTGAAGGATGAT` , write its PBM binding z-score. 7.36

For `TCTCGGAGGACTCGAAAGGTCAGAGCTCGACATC` , write its PBM binding z-score. 0.952

More entries:
For `CGTCAAAGTTCAACTACGGTAACGTAAAGCACGC` , write its PBM binding z-score. 1.78

For `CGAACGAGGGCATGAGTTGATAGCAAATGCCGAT` , write its PBM binding z-score. 2.03

For `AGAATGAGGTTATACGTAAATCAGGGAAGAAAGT` , write its PBM binding z-score. 2.28
